Recorded pIC50 values (AT2 receptor (Homo sapiens (Human), UniProt P50052)) are given below.
When answering, recall that pIC50 equals minus log10 of the concentration in mol/L, and write that number alone.

Below, 3 compounds whose answers are already recorded.
| compound | target | pIC50 |
| --- | --- | --- |
| O=C(O)[C@@H]1C[C@H](N2CCOC[C@@H]2Cc2ccccc2)CN1C(=O)C(c1ccccc1)c1ccccc1 [Compound 28] | AT2 receptor (Homo sapiens (Human), UniProt P50052) | 7.06 |
| CN(CCCc1ccccc1)[C@H]1C[C@@H](C(=O)O)N(C(=O)C(c2ccccc2)c2ccccc2)C1 [Compound 21] | AT2 receptor (Homo sapiens (Human), UniProt P50052) | 7.21 |
| CN(CCCc1cccnc1)[C@H]1C[C@@H](C(=O)O)N(C(=O)C(c2ccccc2)c2ccccc2)C1 [Compound 93] | AT2 receptor (Homo sapiens (Human), UniProt P50052) | 6.90 |

stdin: Identify the measured pIC50 of O=C(O)[C@@H]1C[C@H](N2CCC[C@@H]3CN(Cc4ccccc4)C[C@@H]32)CN1C(=O)C(c1ccccc1)c1ccccc1 [Compound 85] for AT2 receptor (Homo sapiens (Human), UniProt P50052).
stdout: 6.99

stdin: Please do the same for O=C(O)[C@@H]1C[C@H](CSc2ccccc2)CN1C(=O)C(c1ccccc1)c1ccccc1 [Compound 122] as well.
stdout: 6.85
